# System: CYP3A4/5
# assay_name: in vitro
# test_parameters: human, microsomes, pH 7.4, Percent of Control Activity, CYP 3A4/5 (mdz), 1 µM, 30-Minute Preincubation
readout_type: activity at 1 µM (%)

| test_smiles | readout_type | reported_result |
| --- | --- | --- |
| COc1cccc2[nH]c(C(=O)N[C@@H](CC(C)C)C(=O)N[C@@H](C[C@@H]3CCNC3=O)C(=O)COP(=O)(O)O)cc12 | activity at 1 µM | 99.2 |

---

# System: CYP3A4/5
# assay_name: in vitro
# test_parameters: human, microsomes, pH 7.4, Percent of Control Activity, CYP 3A4/5 (mdz), 200 µM, Zero-Minute Preincubation

| test_smiles | activity at 200 µM |
| --- | --- |
| COc1cccc2[nH]c(C(=O)N[C@@H](CC(C)C)C(=O)N[C@@H](C[C@@H]3CCNC3=O)C(=O)CO)cc12 | 104% |

---

# System: CYP3A4/5
# assay_name: in vitro
# test_parameters: human, microsomes, pH 7.4, Percent of Control Activity, CYP 3A4/5 (tst), 200 µM, 30-Minute Preincubation
readout_type: activity at 200 µM

| compound | readout_type | reported_result |
| --- | --- | --- |
| COc1cccc2[nH]c(C(=O)N[C@@H](CC(C)C)C(=O)N[C@@H](C[C@@H]3CCNC3=O)C(=O)CO)cc12 [PF-00835231] | activity at 200 µM | 24.3% |

---

# assay_target: CYP1A2 (Homo sapiens, UniProt P05177)
# Sequence (P05177 whole entry): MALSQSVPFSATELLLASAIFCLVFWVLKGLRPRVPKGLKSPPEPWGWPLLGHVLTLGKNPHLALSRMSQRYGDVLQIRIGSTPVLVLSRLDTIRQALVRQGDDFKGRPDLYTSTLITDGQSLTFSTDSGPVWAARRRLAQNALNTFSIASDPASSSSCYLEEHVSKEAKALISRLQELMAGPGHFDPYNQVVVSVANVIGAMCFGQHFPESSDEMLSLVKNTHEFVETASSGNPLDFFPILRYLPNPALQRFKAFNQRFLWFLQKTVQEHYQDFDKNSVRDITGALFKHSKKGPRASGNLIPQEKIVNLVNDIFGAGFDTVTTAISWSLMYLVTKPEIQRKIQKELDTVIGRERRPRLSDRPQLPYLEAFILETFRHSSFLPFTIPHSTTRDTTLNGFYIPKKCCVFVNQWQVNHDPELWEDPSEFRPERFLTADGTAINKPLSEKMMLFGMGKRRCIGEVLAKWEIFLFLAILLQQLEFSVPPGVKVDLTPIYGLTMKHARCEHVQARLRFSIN
# assay_name: Reversible CYP inhibition in human liver microsomes
# test_parameters: human, microsomes, pH 7.4, Percent of Control Activity, CYP 1A2, 100 µM, 30-Minute Preincubation
readout_type: activity at 100 µM

| test_smiles | reported_result |
| --- | --- |
| COc1cccc2[nH]c(C(=O)N[C@@H](CC(C)C)C(=O)N[C@@H](C[C@@H]3CCNC3=O)C(=O)COP(=O)(O)O)cc12 | 103% |

---

# assay_name: Rat pharmacokinetic study
# test_parameters: male, Wistar-Hannover, rat, plasma, iv, […], Clearance, Mean Data, PF-07304814 prodrug dosed […] intravenous, mean
readout_type: clearance

| test_smiles | reported_result |
| --- | --- |
| COc1cccc2[nH]c(C(=O)N[C@@H](CC(C)C)C(=O)N[C@@H](C[C@@H]3CCNC3=O)C(=O)COP(=O)(O)O)cc12 | 194 mL/min/kg |

---

# assay_target: CYP2D6 (Homo sapiens)
# Sequence (P10635 whole entry): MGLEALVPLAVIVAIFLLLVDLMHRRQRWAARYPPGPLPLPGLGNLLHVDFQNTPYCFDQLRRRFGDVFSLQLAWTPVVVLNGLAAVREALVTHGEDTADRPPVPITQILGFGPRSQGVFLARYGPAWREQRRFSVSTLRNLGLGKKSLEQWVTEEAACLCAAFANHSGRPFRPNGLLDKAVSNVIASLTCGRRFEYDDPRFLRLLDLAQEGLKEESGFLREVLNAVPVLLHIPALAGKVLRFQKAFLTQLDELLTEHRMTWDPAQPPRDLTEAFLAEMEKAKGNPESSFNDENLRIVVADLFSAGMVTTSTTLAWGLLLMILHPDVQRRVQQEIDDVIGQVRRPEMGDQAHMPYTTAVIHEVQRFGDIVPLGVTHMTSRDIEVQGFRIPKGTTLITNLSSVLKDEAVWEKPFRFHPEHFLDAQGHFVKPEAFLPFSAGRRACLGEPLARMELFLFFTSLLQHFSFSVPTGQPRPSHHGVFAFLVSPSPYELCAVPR
# assay_name: Reversible CYP inhibition in human liver microsomes
# test_parameters: human, microsomes, pH 7.4, Percent of Control Activity, CYP 2D6, 93.5 µM, 30-Minute Preincubation
readout_type: activity at 93.5 µM

| compound | assay_target | readout_type | reported_result |
| --- | --- | --- | --- |
| COc1cccc2[nH]c(C(=O)N[C@@H](CC(C)C)C(=O)N[C@@H](C[C@@H]3CCNC3=O)C(=O)CO)cc12 [PF-00835231] | CYP2D6 (Homo sapiens) | activity at 93.5 µM | 120% |

---

# assay_name: Rat pharmacokinetic study
# test_parameters: male, Wistar-Hannover, rat, plasma, iv, 2 mg/kg, AUCinf, PF-00835231 active dosed 2mg/kg intravenous, individual rats
readout_type: AUC(0-inf)

| compound | reported_result |
| --- | --- |
| COc1cccc2[nH]c(C(=O)N[C@@H](CC(C)C)C(=O)N[C@@H](C[C@@H]3CCNC3=O)C(=O)CO)cc12 [PF-00835231] | 1230 ng·h/mL |
